The origin of these recorded values is paper PMC12040969.

# System: - MDAMB-231
# method: Antiproliferative assay (MTT) MDAMB-231
# study.conditions: MDAMB-231, 50 µM
What Average of Relative viability of cells (%) was measured for each of the following?
Provide the reading as a plain figure in %.

# input Which value of Average of Relative viability of cells (%) has been reported for Cc1ccc(/C=C/C(=O)c2sc(SCC(=O)Nc3nc(-c4ccccc4)cs3)nc2C)cc1 [Compound 10d] in the records?
# output 16.9

# input Please give the measured Average of Relative viability of cells (%) for this compound: Cc1nc(SCC(=O)Nc2nccs2)sc1C(=O)/C=C/c1ccc(Cl)cc1 [Compound 13b]
# output 17.4

# input Value lookup for Average of Relative viability of cells (%); key = Cc1nc(SCC(=O)Nc2nc(-c3ccc(Cl)cc3)cs2)sc1C(=O)/C=C/c1ccc(F)cc1 [Compound 10h]
# output 26.7

# input Given the compound COc1ccc(/C=C/C(=O)c2sc(SCC(=O)Nc3nc(-c4ccc(C)cc4)cs3)nc2C)cc1 [Compound 10o] , what is its reported Average of Relative viability of cells (%)?
# output 10.2

====

Task for the reader: assign each of the following molecules its reported Average of Relative viability of cells (%).
# Tested on: prostatic - PC-3
# method: Antiproliferative assay (MTT) PC-3
# study.conditions: PC-3, 12.5 µM
The reply should consist of the numeric value with the unit placed after it.

# input Can you look up the measured Average of Relative viability of cells (%) of Cc1nc(SCC(=O)Nc2nc(-c3ccc(Cl)cc3)cs2)sc1C(=O)/C=C/c1ccc(F)cc1 [Compound 10h] for me?
# output 93.5%

# input Reported Average of Relative viability of cells (%), molecule Cc1nc(SCC(=O)Nc2nc(-c3ccc(Cl)cc3)cs2)sc1C(=O)/C=C/c1ccccc1 [Compound 10f] : ____
# output 58.2%

# input Record request: Average of Relative viability of cells (%) value, item Cc1nc(SCC(=O)Nc2nccs2)sc1C(=O)/C=C/c1ccc(F)cc1 [Compound 13c]
# output 67.7%

# input Reported Average of Relative viability of cells (%), molecule Cc1nc(SCC(=O)Nc2nccs2)sc1C(=O)/C=C/c1ccc(Cl)cc1 [Compound 13b] : ____
# output 45.8%

# input // Average of Relative viability of cells (%) lookup, key: Cc1ccc(/C=C/C(=O)c2sc(SCC(=O)Nc3nccs3)nc2C)cc1 [Compound 13d]
# output 35.6%

# input // Average of Relative viability of cells (%) lookup, key: COc1ccc(/C=C/C(=O)c2sc(SCC(=O)Nc3nc(-c4ccc(C)cc4)cs3)nc2C)cc1 [Compound 10o]
# output 48.2%

# input Recorded Average of Relative viability of cells (%) of Cc1ccc(-c2csc(NC(=O)CSc3nc(C)c(C(=O)/C=C/c4ccc(F)cc4)s3)n2)cc1 [Compound 10m] , please.
# output 70.2%

# input I would be grateful if you could share the reported Average of Relative viability of cells (%) for Cc1ccc(/C=C/C(=O)c2sc(SCC(=O)Nc3nc(-c4ccccc4)cs3)nc2C)cc1 [Compound 10d] .
# output 52.3%

====

Task for the reader: assign each of the following compounds its reported Tub K.Activity.
# Tested on: tubulin
# method: Tubulin polymerization inhibition assay (Cytoskeleton kit)
# study.conditions: conc 100 (unit not given), EC = 120, YB-EGY run
Kindly provide the number alone.

# input # Tub K.Activity lookup, item Cc1nc(SCC(=O)Nc2nc(-c3ccccc3)cs2)sc1C(=O)/C=C/c1ccc(Cl)cc1 [Compound 10b]
# output 13.577

# input I have this compound here, Cc1nc(SCC(=O)Nc2nccs2)sc1C(=O)/C=C/c1ccc(Cl)cc1 [Compound 13b] , and I need its recorded Tub K.Activity.
# output 9.196

# input Give its Tub K.Activity value. Item: Cc1nc(SCC(=O)Nc2nccs2)sc1C(=O)/C=C/c1ccc(F)cc1 [Compound 13c]
# output 10.995

# input Could you tell me which Tub K.Activity is on file for Cc1nc(SCC(=O)Nc2nccs2)sc1C(=O)/C=C/c1ccccc1 [Compound 13a] ?
# output 25.608

# input Any idea what Tub K.Activity was measured for Cc1ccc(/C=C/C(=O)c2sc(SCC(=O)Nc3nc(-c4ccccc4)cs3)nc2C)cc1 [Compound 10d] ?
# output 10.641

# input Which value of Tub K.Activity has been reported for COc1ccc(/C=C/C(=O)c2sc(SCC(=O)Nc3nc(-c4ccc(C)cc4)cs3)nc2C)cc1 [Compound 10o] in the records?
# output 10.964

# input Entry Cc1nc(SCC(=O)Nc2nc(-c3ccc(Cl)cc3)cs2)sc1C(=O)/C=C/c1ccc(F)cc1 [Compound 10h] has what Tub K.Activity?
# output 18.607

# input I have this compound here, Cc1nc(SCC(=O)Nc2nc(-c3ccccc3)cs2)sc1C(=O)/C=C/c1ccccc1 [Compound 10a] , and I need its recorded Tub K.Activity.
# output 8.7594

# input What does the record list as Tub K.Activity for COc1ccc(/C=C/C(=O)c2sc(SCC(=O)Nc3nccs3)nc2C)cc1 [Compound 13e] ?
# output 28.968

# input Bench note: what Tub K.Activity did Cc1nc(SCC(=O)Nc2nc(-c3ccccc3)cs2)sc1C(=O)/C=C/c1ccc(F)cc1 [Compound 10c] show?
# output 20.424

====

# Test system: tubulin
# method: Tubulin polymerization inhibition assay (Cytoskeleton kit);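 note: Cell-free tubulin polymerization read by fluorescent reporter enhancement over a 30 min reaction, with the compound-free kit control taken as 100% activity and inhibition relative to it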
# study.conditions: conc 0.01 (unit not given), control = 120, codes 522-537 run
readout.type: Tub. enzyme inhibition assay K. Activity
# answer = number (no unit)

# input # query: Tub. enzyme inhibition assay K. Activity of entry Cc1ccc(/C=C/C(=O)c2sc(SCC(=O)Nc3nc(-c4ccc(C)cc4)cs3)nc2C)cc1 [Compound 10n]
# output 117.59

# input Please look up its Tub. enzyme inhibition assay K. Activity: COc1ccc(/C=C/C(=O)c2sc(SCC(=O)Nc3nc(-c4ccc(Cl)cc4)cs3)nc2C)cc1 [Compound 10j]
# output 117.59

# input Any idea what its Tub. enzyme inhibition assay K. Activity is? The molecule is Cc1ccc(/C=C/C(=O)c2sc(SCC(=O)Nc3nccs3)nc2C)cc1 [Compound 13d]
# output 111.89

====

# Test system: prostatic - PC-3
# method: Antiproliferative assay (MTT) PC-3
# study.conditions: PC-3, 3.125 µM
Kindly state Average of Relative viability of cells (%) for each of the entries shown.
Note: state the figure and append the unit.

# input Field: Average of Relative viability of cells (%) (prostatic - PC-3). Entry: Cc1nc(SCC(=O)Nc2nc(-c3ccc(Cl)cc3)cs2)sc1C(=O)/C=C/c1ccccc1 [Compound 10f]
# output 91.8%

# input Requested read-out Average of Relative viability of cells (%), target or system prostatic - PC-3, entry COc1ccc(/C=C/C(=O)c2sc(SCC(=O)Nc3nc(-c4ccc(C)cc4)cs3)nc2C)cc1 [Compound 10o]
# output 87.4%

# input For the record Cc1nc(SCC(=O)Nc2nc(-c3ccc(Cl)cc3)cs2)sc1C(=O)/C=C/c1ccc(F)cc1 [Compound 10h] , what value of Average of Relative viability of cells (%) is listed for prostatic - PC-3?
# output 100%

# input Quick check: Average of Relative viability of cells (%) on prostatic - PC-3, item Cc1nc(SCC(=O)Nc2nccs2)sc1C(=O)/C=C/c1ccc(Cl)cc1 [Compound 13b] ?
# output 86.4%

# input State its Average of Relative viability of cells (%) on prostatic - PC-3: Cc1ccc(-c2csc(NC(=O)CSc3nc(C)c(C(=O)/C=C/c4ccc(F)cc4)s3)n2)cc1 [Compound 10m]
# output 98.5%

# input Requested read-out Average of Relative viability of cells (%), target or system prostatic - PC-3, entry Cc1ccc(/C=C/C(=O)c2sc(SCC(=O)Nc3nc(-c4ccccc4)cs3)nc2C)cc1 [Compound 10d]
# output 86.5%

# input Please provide the recorded Average of Relative viability of cells (%) for Cc1ccc(/C=C/C(=O)c2sc(SCC(=O)Nc3nccs3)nc2C)cc1 [Compound 13d] , tested on prostatic - PC-3.
# output 83.3%

# input Lab note: need Average of Relative viability of cells (%) with prostatic - PC-3 for entry Cc1nc(SCC(=O)Nc2nccs2)sc1C(=O)/C=C/c1ccc(F)cc1 [Compound 13c] , please look it up.
# output 99.1%

====

So I've got a bunch of molecules here, and I need their viability at 96 h, 50 µM values.
# method: Cell viability assay (MTT), normal cells
# Type: cell-based
# study.conditions: human, MCF-10A normal mammary gland epithelial cells, four-day incubation
Numbers only here, please. The scale is %.

# input State the recorded viability at 96 h, 50 µM for this entry: Cc1ccc(-c2csc(NC(=O)CSc3nc(C)c(C(=O)/C=C/c4ccc(F)cc4)s3)n2)cc1 [Compound 10m]
# output 87

# input So what does the record say about viability at 96 h, 50 µM for Cc1nc(SCC(=O)Nc2nc(-c3ccc(Cl)cc3)cs2)sc1C(=O)/C=C/c1ccc(Cl)cc1 [Compound 10g] ?
# output 89

# input Requested read-out: viability at 96 h, 50 µM. Entry: Cc1nc(SCC(=O)Nc2nccs2)sc1C(=O)/C=C/c1ccc(Cl)cc1 [Compound 13b]
# output 87

# input Endpoint output: viability at 96 h, 50 µM of Cc1ccc(/C=C/C(=O)c2sc(SCC(=O)Nc3nc(-c4ccc(C)cc4)cs3)nc2C)cc1 [Compound 10n] . Value?
# output 89

# input For COc1ccc(/C=C/C(=O)c2sc(SCC(=O)Nc3nc(-c4ccc(C)cc4)cs3)nc2C)cc1 [Compound 10o] , what is its reported viability at 96 h, 50 µM?
# output 90

# input For Cc1nc(SCC(=O)Nc2nc(-c3ccccc3)cs2)sc1C(=O)/C=C/c1ccc(Cl)cc1 [Compound 10b] , what is its reported viability at 96 h, 50 µM?
# output 91

# input Returns the measured viability at 96 h, 50 µM for the input molecule. Input: Cc1nc(SCC(=O)Nc2nc(-c3ccc(Cl)cc3)cs2)sc1C(=O)/C=C/c1ccc(F)cc1 [Compound 10h]
# output 85

# input Please give the measured viability at 96 h, 50 µM for this molecule: Cc1nc(SCC(=O)Nc2nc(-c3ccc(Cl)cc3)cs2)sc1C(=O)/C=C/c1ccccc1 [Compound 10f]
# output 86
